- assay_notes: xn = mol fraction of the nth substance listed, in the solute-free solvent
- particulars: 293.15 K; x2 = 0.7
experimental_endpoint: solubility (g/100 g solution)

A selection of reference data follows.
compound="O=C(O)c1ccc(C(=O)O)o1 + C1CCOC1 + O" experimental_endpoint="solubility (g/100 g solution)" test_value=6.04
compound="CCCCOc1ccc(C(=O)CCN2CCCCC2)cc1.Cl + CO + C1CCOC1" experimental_endpoint="solubility (g/100 g solution)" test_value=39.6

Record solubility (g/100 g solution) per entry; entries follow.
1. CC(=O)OC(c1ccccc1)C(Cl)(Cl)Cl (stereo not given) + CC(C)O + O
2. O=C1CCc2ccc(OCCCCN3CCN(c4cccc(Cl)c4Cl)CC3)cc2N1 + CCC(C)=O + CC(C)=O
3. CC(=O)OC(c1ccccc1)C(Cl)(Cl)Cl (stereo not given) + CCO + O

A.
1: 3.03; 2: 1.99; 3: 2.46

----------
- assay_notes: xn = mol fraction of the nth substance listed, in the solute-free solvent
- particulars: 298.15 K; x2 = 0.9
experimental_endpoint: solubility (g/100 g solution)

Solved cases (3 shown):
molecule="COC1=CC(=O)CC(C)C12Oc1c(Cl)c(OC)cc(OC)c1C2=O (centres undefined) + CC(C)=O + CC(C)O" experimental_endpoint="solubility (g/100 g solution)" test_value=3.33
molecule="O=C1CCc2ccc(OCCCCN3CCN(c4cccc(Cl)c4Cl)CC3)cc2N1 + CCC(C)=O + CCOC(C)=O" experimental_endpoint="solubility (g/100 g solution)" test_value=2.36
molecule="O=C1CCc2ccc(OCCCCN3CCN(c4cccc(Cl)c4Cl)CC3)cc2N1 + CCC(C)=O + CCCO" experimental_endpoint="solubility (g/100 g solution)" test_value=3.12

Q. Output solubility (g/100 g solution) of CCCCOc1ccc(C(=O)CCN2CCCCC2)cc1.Cl + CCO + CCCCCC
A. 38.8

----------
Record form. Attribute: solubility (g/100 g solution). Fill in for each entry.
- assay_notes: xn = mol fraction of the nth substance listed, in the solute-free solvent
- particulars: 333.15 K; x2 = 0.1
One number for each entry.

Field: example entries. Status: answers known.
compound="O=C(O)c1ccc(C(=O)O)o1 + C1COCCO1 + O" experimental_endpoint="solubility (g/100 g solution)" test_value=3.24
compound="O=C(O)c1ccc(C(=O)O)o1 + O + COCCOCCOC" experimental_endpoint="solubility (g/100 g solution)" test_value=1.74
compound="O=C(O)c1ccc(C(=O)O)o1 + C1CCOC1 + O" experimental_endpoint="solubility (g/100 g solution)" test_value=3.15

Q. Given the compound O=C(O)c1ccc(C(=O)O)o1 + O + COCCOC , write its reported solubility (g/100 g solution).
A. 1.83

----------
For each entry below, report its solubility (g/100 g solution) value.
- assay_notes: xn = mol fraction of the nth substance listed, in the solute-free solvent
- particulars: 278.15 K; x2 = 0.6

compound="CCCCOc1ccc(C(=O)CCN2CCCCC2)cc1.Cl + CCO + O" experimental_endpoint="solubility (g/100 g solution)" test_value=32.5

Provide the reported solubility (g/100 g solution) of each entry below, same order.
1. O=C1CCc2ccc(OCCCCN3CCN(c4cccc(Cl)c4Cl)CC3)cc2N1 + CCC(C)=O + CCCO
2. O=C1CCc2ccc(OCCCCN3CCN(c4cccc(Cl)c4Cl)CC3)cc2N1 + CCC(C)=O + CC(C)=O
3. CCCCOc1ccc(C(=O)CCN2CCCCC2)cc1.Cl + CCO + CCCCCC

A.
2.04
1.09
16.8

Could you report solubility (g/100 g solution) for every entry in the following list?
1. CCCCOc1ccc(C(=O)CCN2CCCCC2)cc1.Cl + CO + C1CCOC1
2. O=C1CCc2ccc(OCCCCN3CCN(c4cccc(Cl)c4Cl)CC3)cc2N1 + CCC(C)=O + CCOC(C)=O

A.
25.5
0.825

Q. Provide one value: measured solubility (g/100 g solution) of CCCCOc1ccc(C(=O)CCN2CCCCC2)cc1.Cl + CCO + CCOC(C)=O
A. 17.6
